Hey, just so you know, these numbers are from ChEMBL document CHEMBL1155976.

TESTED_TARGET: D(2) dopamine receptor (Rattus norvegicus)
Sequence (P61169 whole entry): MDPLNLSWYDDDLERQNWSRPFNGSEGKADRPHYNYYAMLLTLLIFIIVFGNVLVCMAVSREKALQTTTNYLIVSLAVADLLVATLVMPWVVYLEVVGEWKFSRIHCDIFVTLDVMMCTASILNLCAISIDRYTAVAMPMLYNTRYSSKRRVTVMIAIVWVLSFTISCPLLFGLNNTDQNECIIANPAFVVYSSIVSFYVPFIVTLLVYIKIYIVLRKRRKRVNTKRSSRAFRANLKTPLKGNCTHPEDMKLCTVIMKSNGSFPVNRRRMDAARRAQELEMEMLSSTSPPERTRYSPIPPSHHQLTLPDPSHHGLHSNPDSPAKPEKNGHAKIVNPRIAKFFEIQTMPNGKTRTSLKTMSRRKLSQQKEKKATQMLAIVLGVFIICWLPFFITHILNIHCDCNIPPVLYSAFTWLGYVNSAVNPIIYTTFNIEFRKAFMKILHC
ASSAY_PROTOCOL: Displacement of [3H]spiperone from dopamine D2 receptor in rat striatum membrane after 30 mins by liquid scintillation counting
pKi: −log10 of the molar value.
MEASUREMENT_NAME: pKi

STRUCTURE_SMILES: COc1ccccc1N1CCN(CCCn2c(C)cn3c4c(=O)n(C)c(=O)n(C)c4nc23)CC1
MEASUREMENT_NAME: pKi
RESULT_QUALIFIER: =
REPORTED_VALUE: 6.46
//
STRUCTURE_SMILES: Cn1c(=O)c2c(nc3n(CCCN4CCN(c5cccc(Cl)c5)CC4)ccn23)n(C)c1=O
MEASUREMENT_NAME: pKi
RESULT_QUALIFIER: <
REPORTED_VALUE: 6.00
//
STRUCTURE_SMILES: Cc1cn2c3c(=O)n(C)c(=O)n(C)c3nc2n1CCCN1CCN(c2ccccc2)CC1
MEASUREMENT_NAME: pKi
RESULT_QUALIFIER: <
REPORTED_VALUE: 6.00
//
STRUCTURE_SMILES: COc1ccccc1N1CCN(CCCn2c(-c3ccccc3)cn3c4c(=O)n(C)c(=O)n(C)c4nc23)CC1
MEASUREMENT_NAME: pKi
RESULT_QUALIFIER: =
REPORTED_VALUE: 6.84
//
STRUCTURE_SMILES: Cn1c(=O)c2c(nc3n(CCCN4CCN(c5ccccc5)CC4)c(-c4ccccc4)cn23)n(C)c1=O
MEASUREMENT_NAME: pKi
RESULT_QUALIFIER: <
REPORTED_VALUE: 6.00
//
STRUCTURE_SMILES: COc1ccccc1N1CCN(CCCn2ccn3c4c(=O)n(C)c(=O)n(C)c4nc23)CC1
MEASUREMENT_NAME: pKi
RESULT_QUALIFIER: =
REPORTED_VALUE: 6.08
//
STRUCTURE_SMILES: Cn1c(=O)c2c(nc3n(CCCN4CCN(c5ccccc5)CC4)ccn23)n(C)c1=O
MEASUREMENT_NAME: pKi
RESULT_QUALIFIER: <
REPORTED_VALUE: 6.00
//
STRUCTURE_SMILES: Cc1cn2c3c(=O)n(C)c(=O)n(C)c3nc2n1CCCN1CCN(c2cccc(Cl)c2)CC1
MEASUREMENT_NAME: pKi
RESULT_QUALIFIER: =
REPORTED_VALUE: 6.12

====

TESTED_TARGET: 5-hydroxytryptamine receptor 1A (Rattus norvegicus)
Sequence (P19327 whole entry): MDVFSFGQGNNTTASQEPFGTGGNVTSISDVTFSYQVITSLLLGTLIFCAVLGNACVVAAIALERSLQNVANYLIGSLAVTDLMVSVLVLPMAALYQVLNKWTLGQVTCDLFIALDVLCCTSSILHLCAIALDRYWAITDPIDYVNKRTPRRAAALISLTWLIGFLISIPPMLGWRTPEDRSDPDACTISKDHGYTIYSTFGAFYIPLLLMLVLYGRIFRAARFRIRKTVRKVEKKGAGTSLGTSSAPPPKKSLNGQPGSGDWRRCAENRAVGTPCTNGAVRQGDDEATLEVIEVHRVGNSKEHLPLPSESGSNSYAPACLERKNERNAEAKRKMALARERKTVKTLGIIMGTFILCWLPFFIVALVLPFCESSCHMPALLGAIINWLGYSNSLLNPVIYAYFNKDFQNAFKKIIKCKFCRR
In this section we review reported Ki values for a set of compounds.

COMPOUND: Cn1c(=O)c2c(nc3n2CC(C(=O)NCCN2CCN(c4ccccc4)CC2)N3)n(C)c1=O (stereo not given)
Ki: > 1000 nM
--
COMPOUND: Cc1cn2c3c(=O)n(C)c(=O)n(C)c3nc2n1CCCN1CCN(c2ccccc2)CC1
Ki: 76.4 nM
--
COMPOUND: COc1ccccc1N1CCN(CCCn2c(-c3ccccc3)cn3c4c(=O)n(C)c(=O)n(C)c4nc23)CC1
Ki: 5.6 nM
--
COMPOUND: Cn1c(=O)c2c(nc3n2CC(C(=O)NCCN2CCN(c4cccc(Cl)c4)CC2)N3)n(C)c1=O (stereo not given)
Ki: > 1000 nM
--
COMPOUND: COc1ccccc1N1CCN(CCCn2ccn3c4c(=O)n(C)c(=O)n(C)c4nc23)CC1
Ki: 25.4 nM
